Target: T1, human CD38 expressed on the cell surface (human, UniProt P28907 1-300)
T1 construct: whole, on cells; also called hCD38-expressing cells; huCD38
Test: flow cytometry (column FACS EC50 nM, hu)
experimental.endpoint: pEC50
Please note pEC50 is a logarithmic value: minus log10 of concentration in mol/L. Answer with that number alone.

Exercise: Would you mind telling me what pEC50 value was observed for mAb3 (antibody, human IgG1, kappa, V domains shown, also called antiCD38_C2-CD38-1_VH3-VL3) VH: QVQLVQSGAEVVKPGASVKVSCKASGYTFTSFNMHWVKEAPGQRLEWIGYIYPGNGGTNYNQKFQGRATLTADTSASTAYMELSSLRSEDTAVYFCARTGGLRRAYFTYWGQGTLVTVSS VL: DIVLTQSPATLSLSPGERATISCRASESVDSYGNGFMHWYQQKPGQPPRLLIYLASSRATGIPARFSGSGSGTDFTLTISPLEPEDFAVYYCQQNKEDPWTFGGGTKLEIKR ?
Solution: 9.11
